These measurements were taken from patent US20240279318A1.

Assignment: determine reported pKd for the given binders.
biological target: T1, AFP158/HLA-A*02:01 complex (human); assay: SPR, scFv captured, pMHC in flow;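 note: complex injected at several concentrations over crude scFv, association then running-buffer dissociation, KD estimated from kinetic on- and off-rate constants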
T1 construct: flowed over the chip in SPR; also called AFP158 pro
Answers are plain numbers, as −log10 of the molar value.

binder | reported
LH98Q (scFv, AS170036 VL1VH1 scFv mutein; also called AS170036 VL1VH1-VLH98Q) scFv: QSALTQPRSVSGSPGQSVTISCAGTSSDVGSENYVSWYQQHPGKAPKLMIYQVNKRASGVPDRFSGSKSGNTASLTISGLQAEDEADYYCASYRSSDQNIVFGGGTKLTVLGGGGSGGGGSGGGGSEVQLVESGGGLVQPGGSLRLSCAASGFTFSSYAMSWVRQAPGKGLEWVSTINSGTGSPYYADSVKGRFTISRDNSKNTLYLQMNSLRAEDTAVYYCAKNFFDGSWFLGPPAMDYWGQGTLVTVSSHHHHHH | 7.12

Please supply pKd for each of the following items, keeping them in order.
1. LD97T (scFv, AS170036 VL1VH1 scFv mutein) scFv: QSALTQPRSVSGSPGQSVTISCAGTSSDVGSENYVSWYQQHPGKAPKLMIYQVNKRASGVPDRFSGSKSGNTASLTISGLQAEDEADYYCASYRSSTHNIVFGGGTKLTVLGGGGSGGGGSGGGGSEVQLVESGGGLVQPGGSLRLSCAASGFTFSSYAMSWVRQAPGKGLEWVSTINSGTGSPYYADSVKGRFTISRDNSKNTLYLQMNSLRAEDTAVYYCAKNFFDGSWFLGPPAMDYWGQGTLVTVSSHHHHHH
2. LD97N (scFv, AS170036 VL1VH1 scFv mutein) scFv: QSALTQPRSVSGSPGQSVTISCAGTSSDVGSENYVSWYQQHPGKAPKLMIYQVNKRASGVPDRFSGSKSGNTASLTISGLQAEDEADYYCASYRSSNHNIVFGGGTKLTVLGGGGSGGGGSGGGGSEVQLVESGGGLVQPGGSLRLSCAASGFTFSSYAMSWVRQAPGKGLEWVSTINSGTGSPYYADSVKGRFTISRDNSKNTLYLQMNSLRAEDTAVYYCAKNFFDGSWFLGPPAMDYWGQGTLVTVSSHHHHHH
3. LY93F (scFv, AS170036 VL1VH1 scFv mutein) scFv: QSALTQPRSVSGSPGQSVTISCAGTSSDVGSENYVSWYQQHPGKAPKLMIYQVNKRASGVPDRFSGSKSGNTASLTISGLQAEDEADYYCASFRSSDHNIVFGGGTKLTVLGGGGSGGGGSGGGGSEVQLVESGGGLVQPGGSLRLSCAASGFTFSSYAMSWVRQAPGKGLEWVSTINSGTGSPYYADSVKGRFTISRDNSKNTLYLQMNSLRAEDTAVYYCAKNFFDGSWFLGPPAMDYWGQGTLVTVSSHHHHHH
4. LY34W (scFv, AS170036 VL1VH1 scFv mutein) scFv: QSALTQPRSVSGSPGQSVTISCAGTSSDVGSENWVSWYQQHPGKAPKLMIYQVNKRASGVPDRFSGSKSGNTASLTISGLQAEDEADYYCASYRSSDHNIVFGGGTKLTVLGGGGSGGGGSGGGGSEVQLVESGGGLVQPGGSLRLSCAASGFTFSSYAMSWVRQAPGKGLEWVSTINSGTGSPYYADSVKGRFTISRDNSKNTLYLQMNSLRAEDTAVYYCAKNFFDGSWFLGPPAMDYWGQGTLVTVSSHHHHHH

1: 6.44; 2: 6.62; 3: 6.85; 4: 6.39
